Species on record: Rattus norvegicus
Test: Open TG-GATES - Regimen: Daily Repeat
Type: toxicity, organism-based, Sprague-Dawley
Parameters: regimen Daily Repeat, gender Male, age 6 weeks
Conditions: in vivo, po, 0 mg/kg, […], tissue Plasma, route gavage, dose level Control, time 28 day
MEASUREMENT_NAME: K (meq/L)

{"MOLECULE": "Clc1c(Cl)c(Cl)c(Cl)c(Cl)c1Cl [PERCHLOROBENZENE]", "MEASUREMENT_NAME": "K", "READING": 4.3}
{"MOLECULE": "CC(CN1c2ccccc2Sc2ccccc21)N(C)C (stereo not given) [PROMETHAZINE]", "MEASUREMENT_NAME": "K", "READING": 4}
{"MOLECULE": "O=C(O)Cc1ccccc1Nc1c(Cl)cccc1Cl [DICLOFENAC]", "MEASUREMENT_NAME": "K", "READING": 3.5}
{"MOLECULE": "C1CCC(C(CC2CCCCN2)C2CCCCC2)CC1 (stereo not given) [PERHEXILINE]", "MEASUREMENT_NAME": "K", "READING": 4.2}
{"MOLECULE": "C#C[C@]1(O)CC[C@H]2[C@@H]3CCC4=Cc5oncc5C[C@]4(C)[C@H]3CC[C@@]21C [DANAZOL]", "MEASUREMENT_NAME": "K", "READING": 4}
{"MOLECULE": "CCOC(=O)[C@H](CCc1ccccc1)N[C@@H](C)C(=O)N1CCC[C@H]1C(=O)O", "MEASUREMENT_NAME": "K", "READING": 4.5}
{"MOLECULE": "Cc1cccc(Nc2ccccc2C(=O)O)c1C [MEFENAMIC ACID]", "MEASUREMENT_NAME": "K", "READING": 3.8}
{"MOLECULE": "CN(C)[C@@H]1C(O)=C(C(N)=O)C(=O)[C@@]2(O)C(O)=C3C(=O)c4c(O)cccc4[C@@](C)(O)[C@H]3C[C@@H]12 [TETRACYCLINE]", "MEASUREMENT_NAME": "K", "READING": 4.6}
{"MOLECULE": "CC(=O)Nc1nnc(S(N)(=O)=O)s1 [ACETAZOLAMIDE]", "MEASUREMENT_NAME": "K", "READING": 4.1}
{"MOLECULE": "CN1C(C(=O)Nc2ccccn2)=C(O)c2sc(Cl)cc2S1(=O)=O [LORNOXICAM]", "MEASUREMENT_NAME": "K", "READING": 4}

---

Organism: Rattus norvegicus
Assay: Open TG-GATES - Regimen: Daily Repeat
Type: toxicity, organism-based, Sprague-Dawley
Parameters: regimen Daily Repeat, gender Male, age 6 weeks
Settings: in vivo, po, 0 mg/kg, […], tissue Plasma, route gavage, dose level Control, time 14 day
Known Na of a selection of compounds
MEASUREMENT_NAME: Na (meq/L)

{"COMPOUND": "CN1C(C(=O)Nc2ccccn2)=C(O)c2sc(Cl)cc2S1(=O)=O", "MEASUREMENT_NAME": "Na", "READOUT_UNITS": "meq/L", "READING": 141.2}
{"COMPOUND": "C#C[C@]1(O)CC[C@H]2[C@@H]3CCC4=Cc5oncc5C[C@]4(C)[C@H]3CC[C@@]21C", "MEASUREMENT_NAME": "Na", "READOUT_UNITS": "meq/L", "READING": 142.2}
{"COMPOUND": "O=C(O)Cc1ccccc1Nc1c(Cl)cccc1Cl", "MEASUREMENT_NAME": "Na", "READOUT_UNITS": "meq/L", "READING": 140.2}
{"COMPOUND": "CC(=O)Nc1nnc(S(N)(=O)=O)s1 [ACETAZOLAMIDE]", "MEASUREMENT_NAME": "Na", "READOUT_UNITS": "meq/L", "READING": 143.6}
{"COMPOUND": "Clc1c(Cl)c(Cl)c(Cl)c(Cl)c1Cl", "MEASUREMENT_NAME": "Na", "READOUT_UNITS": "meq/L", "READING": 138.4}
{"COMPOUND": "CCOC(=O)[C@H](CCc1ccccc1)N[C@@H](C)C(=O)N1CCC[C@H]1C(=O)O", "MEASUREMENT_NAME": "Na", "READOUT_UNITS": "meq/L", "READING": 140}
{"COMPOUND": "C1CCC(C(CC2CCCCN2)C2CCCCC2)CC1 (stereo not given)", "MEASUREMENT_NAME": "Na", "READOUT_UNITS": "meq/L", "READING": 143.2}
{"COMPOUND": "CN(C)[C@@H]1C(O)=C(C(N)=O)C(=O)[C@@]2(O)C(O)=C3C(=O)c4c(O)cccc4[C@@](C)(O)[C@H]3C[C@@H]12", "MEASUREMENT_NAME": "Na", "READOUT_UNITS": "meq/L", "READING": 141}
{"COMPOUND": "CC(CN1c2ccccc2Sc2ccccc21)N(C)C (stereo not given)", "MEASUREMENT_NAME": "Na", "READOUT_UNITS": "meq/L", "READING": 142.2}
{"COMPOUND": "Cc1cccc(Nc2ccccc2C(=O)O)c1C", "MEASUREMENT_NAME": "Na", "READOUT_UNITS": "meq/L", "READING": 140.6}
